The reported measurements were obtained from PubChem BioAssay AID1159580.

Test: chemical genetic growth profiling, strain panel (AID 1159580);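 also: tested at 20 µM; growth read once vehicle control cultures reached saturation at 30 °C; 1 = growth at the plate median or of vehicle wells; lower values mean less growth of the strain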
Conditions: S. cerevisiae deletion strains, growth OD, locus YNL271C, strain bni1, active compounds read low
Among all 5,500 compounds or so, about 2,000 (36%) were called active. Not shown: some 18% with an inconclusive outcome. Some of the results follow.
normalized growth values by entry
metric: normalized growth

[[record]]
compound = "CCS(=O)(=O)CCn1c([N+](=O)[O-])cnc1C"
reported_result = 1.02

[[record]]
compound = "COc1cc2c(cc1-c1coc3c4c(c(OC)cc3c1=O)OC(C)(C)C=C4)OCO2"
reported_result = 0.991

[[record]]
compound = "COc1cc(OC)c2c(c1Cl)OC1(C2=O)C(O)=CC(=O)CC1C (centres undefined)"
reported_result = 0.984

[[record]]
compound = "C[C@]12CCC3C(CC[C@H]4C[C@@H](O)CC[C@]34C)C1CCC2=O (some centres undefined)"
reported_result = 0.94

[[record]]
compound = "Cn1c(=O)[nH]c(=O)c2[nH]cnc21"
reported_result = 0.963

[[record]]
compound = "Cc1cc(O)c2c(c1O)C(=O)c1c(O)cc(C)c(O)c1C2=O"
reported_result = 0.987

[[record]]
compound = "O=c1c(-c2ccc3c(c2)OCO3)coc2cc(O)ccc12"
reported_result = 0.992

[[record]]
compound = "COc1cc(O)c(C(C)=O)c(OC)c1"
reported_result = 0.985

[[record]]
compound = "O=c1[nH]c2ccccc2n1C1CCN(CCCC(c2ccc(F)cc2)c2ccc(F)cc2)CC1"
reported_result = 1.01

[[record]]
compound = "CC1=C2CCC3C(CC[C@]4(C)C(=O)CCC34)[C@@]2(C)CCC1=O (some centres undefined)"
reported_result = 0.957

[[record]]
compound = "CC(=O)OCC(=O)[C@@]1(O)CCC2C3CCC4=CC(=O)CC[C@]4(C)[C@@]3(F)[C@@H](O)C[C@@]21C (some centres undefined)"
reported_result = 1.01

[[record]]
compound = "Fc1ccc(C(c2ccc(F)cc2)N2CCN(C/C=C/c3ccccc3)CC2)cc1"
reported_result = 0.984

[[record]]
compound = "Nc1ncnc2nc[nH]c12"
reported_result = 0.956

[[record]]
compound = "Cc1c(N(C)CS(=O)(=O)O)c(=O)n(-c2ccccc2)n1C"
reported_result = 0.992

[[record]]
compound = "CC(C)CCCC(C)C1CCC2C3CCC4CC(=O)CCC4(C)C3CCC12C (centres undefined)"
reported_result = 1.01

[[record]]
compound = "Cc1cc(C)nc(NS(=O)(=O)c2ccc(N)cc2)n1"
reported_result = 0.993

[[record]]
compound = "CCOc1ccc(Cc2nccc3cc(OCC)c(OCC)cc23)cc1OCC"
reported_result = 0.979

[[record]]
compound = "CC(C)(O)CC[C@@H](O)[C@](C)(O)C1CC[C@@]2(O)C3=CC(=O)C4C[C@@H](O)[C@@H](O)C[C@]4(C)C3CC[C@]12C (some centres undefined)"
reported_result = 1

[[record]]
compound = "CN1CCN(C(c2ccccc2)c2ccccc2)CC1"
reported_result = 0.974

[[record]]
compound = "O=c1[nH]cnc2nc[nH]c12"
reported_result = 0.978

[[record]]
compound = "CN1CCN(CCCN2c3ccccc3Sc3ccc(Cl)cc32)CC1"
reported_result = 0.994

[[record]]
compound = "C/C=C(\\C)C(=O)OC1[C@@H]2C=C3C4CC(=O)O[C@@H](c5ccoc5)[C@]4(C)CCC3[C@@](C)(C2=O)[C@@H](C(O)C(=O)OC)C1(C)C (some centres undefined)"
reported_result = 1.02

[[record]]
compound = "COc1c2c(cc3occ(-c4ccc5c(c4)OCO5)c(=O)c13)OC(C)(C)C=C2"
reported_result = 0.98

[[record]]
compound = "COc1cc(O)c(C(=O)c2ccccc2)c(OC)c1"
reported_result = 0.982

[[record]]
compound = "O=c1cc(-c2ccc(O)cc2)oc2cc(O[C@@H]3O[C@H](CO)[C@@H](O)[C@H](O)[C@H]3O[C@@H]3OC[C@](O)(CO)[C@H]3O)cc(O)c12"
reported_result = 1.01

[[record]]
compound = "CC(C(=O)O)c1ccc(N2Cc3ccccc3C2=O)cc1 (centres undefined)"
reported_result = 0.984

[[record]]
compound = "COc1c(O)cc(O)cc1O"
reported_result = 0.994

[[record]]
compound = "Cn1nnnc1SCC1=C(C(=O)O)N2C(=O)C(NC(=O)C(OC=O)c3ccccc3)C2SC1 (centres undefined)"
reported_result = 1.04

[[record]]
compound = "c1ccc2c(c1)[nH]c1cnccc12"
reported_result = 0.985

[[record]]
compound = "CN(C)c1nc(N(C)C)nc(N(C)C)n1"
reported_result = 1.02

[[record]]
compound = "CCCC(=O)Nc1ncnc2c1ncn2C1O[C@@H]2COP(=O)(O)O[C@H]2[C@H]1OC(=O)CCC (some centres undefined)"
reported_result = 1.02

[[record]]
compound = "CC1=C2[C@](C)(C=CC1=O)C[C@H](O)[C@H]1[C@H](C)C(=O)O[C@]21C"
reported_result = 1.03

[[record]]
compound = "CSCCC(NC=O)C(=O)NC(CC(C)C)C(=O)NC(Cc1ccccc1)C(=O)O (centres undefined)"
reported_result = 0.996

[[record]]
compound = "COc1ccc2c(c1)[nH]c1c(C)nccc12"
reported_result = 0.991

[[record]]
compound = "COc1cc(O)c(C)c(O)c1"
reported_result = 1.03

[[record]]
compound = "CCNc1nc(Cl)nc(NC(C)C)n1"
reported_result = 1.02

[[record]]
compound = "COc1c2occc2cc2ccc(=O)oc12"
reported_result = 0.983

[[record]]
compound = "COc1ccc2c(=O)c(CC(=O)O)coc2c1"
reported_result = 0.986

[[record]]
compound = "C[C@]12C=CC(=O)C=C1CCC1C2CC[C@]2(C)C(=O)CCC12 (some centres undefined)"
reported_result = 0.989

[[record]]
compound = "Nc1ncnc2c1ncn2[C@@H]1O[C@H](CO)[C@@H](O)[C@@H]1O"
reported_result = 1.03

[[record]]
compound = "c1coc(CNc2ncnc3nc[nH]c23)c1"
reported_result = 0.988

[[record]]
compound = "COC(=O)C[C@H]1C(C)(C)C(OC(C)=O)[C@]2(O)C=C3C4CC(=O)O[C@@H](c5ccoc5)[C@]4(C)CCC3[C@@]1(C)C2=O (some centres undefined)"
reported_result = 1.01

[[record]]
compound = "CC(C)=CCc1c(O)cc2occ(-c3ccc4c(c3)OCO4)c(=O)c2c1O"
reported_result = 1.03

[[record]]
compound = "CN1Cc2c(N)cccc2C(c2ccccc2)C1 (centres undefined)"
reported_result = 1.01

